Below: a set of entries, each annotated with reported %Inh.
Tested on: OSR1
Construct: gene OXSR1
Conditions: concentration: 1 μM,replicates: in singlicate; n = 1;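 note: KINOMEscan kinase panel screen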
TEST READOUT: %Inh (%)

>>> experimental_value("COc1cc2ncn(-c3cc(OCC4CCCCC4)c(C(N)=O)s3)c2cc1OC")
15
>>> experimental_value("Nc1nccc(-c2ccc3c(N)n[nH]c3c2)n1")
6
>>> experimental_value("Cc1cccc2c(-c3ccncc3)c(-c3ccc(F)cc3)nn12.Cl")
0
>>> experimental_value("CN(c1ccc2c(c1)nc(NCc1ccc(F)cc1)n2C)c1ccnc(Nc2ccc(CS(C)(=O)=O)cc2)n1.Cl")
0
>>> experimental_value("OCCn1cc(-c2cnc3nnn(Cc4ccc5ncccc5c4)c3n2)cn1")
0
>>> experimental_value("C[C@@H]1CCN(C(=O)N2CCCC2)C[C@@H]1N(C)c1ncnc2[nH]ccc12")
11
>>> experimental_value("CCOC(=O)N1CCC(n2cnc(-c3ccc(F)cc3)c2-c2ccnc(N)n2)CC1")
1
>>> experimental_value("Cn1ccc2ncnc(Oc3ccc(NC(=O)Nc4cccc(C(F)(F)F)c4)c(F)c3)c21")
0
>>> experimental_value("CNC(=O)c1ccccc1Nc1nc(Nc2cccc(CS(C)(=O)=O)c2)ncc1C.O=CO")
28

----------
# maps each entry to its %Inh
Test system: PFTAIRE2
Conditions: concentration: 1 μM,replicates: in singlicate; n = 1
TEST READOUT: %Inh (%)

>>> experimental_value("Nc1nccc(-c2ccc3c(N)n[nH]c3c2)n1 [GSK1034945]")
15
>>> experimental_value("O=C(Nc1cccc(C(F)(F)F)c1)c1cccc(Oc2ccc3nccn3n2)c1")
0
>>> experimental_value("COc1cc2ncn(-c3cc(OCC4CCCCC4)c(C(N)=O)s3)c2cc1OC [GSK204559]")
34
>>> experimental_value("CS(=O)(=O)Nc1ccc(-c2ccnc3[nH]ccc23)cc1 [GSK993273]")
16
>>> experimental_value("Cn1ccc2ncnc(Oc3ccc(NC(=O)Nc4cccc(C(F)(F)F)c4)c(Cl)c3)c21")
3
>>> experimental_value("COC(=O)c1cccc(NC(=O)NC2CCN(c3ccnc(NCc4ccc(F)cc4)n3)CC2)c1 [GSK1379860]")
0
>>> experimental_value("OCCn1cc(-c2cnc3nnn(Cc4ccc5ncccc5c4)c3n2)cn1")
0
>>> experimental_value("CC(=O)c1c(-c2ccncc2)[nH]c(-c2ccncc2)c1C [GW493036]")
0
>>> experimental_value("Cc1ccc(C(=O)Nc2ccc(Oc3ccc4nc(NC(=O)C5CC5)cn4c3)c(F)c2)c(=O)n1-c1ccccc1")
9

----------
System: EPHB2
Details: concentration: 1 μM,replicates: in singlicate; n = 1
Readings of %Inh for the listed compounds
TEST READOUT: %Inh

>>> experimental_value("CC(=O)c1c(-c2ccncc2)[nH]c(-c2ccncc2)c1C")
"0%"
>>> experimental_value("COc1cc(Nc2nccc(N3CCC(NC(=O)c4cccc(C#N)c4)C3)n2)cc(OC)c1OC (centres unmarked)")
"0%"
>>> experimental_value("C[C@@H]1CNc2c(sc3ccc4nc(-c5ccc(O)cc5)ccc4c23)C(=O)N1")
"12%"
>>> experimental_value("O=C(Nc1ccc(Oc2ccc3nc(NC(=O)C4CC4)cn3n2)c(F)c1)c1cccn(-c2ccccc2)c1=O")
"60%"
>>> experimental_value("Cc1n[nH]c2cc(Nc3ccnc(Nc4cccc(CN5CCOCC5)c4)n3)ccc12")
"13%"
>>> experimental_value("CS(=O)(=O)Nc1ccc(-c2ccnc3[nH]ccc23)cc1")
"6%"
>>> experimental_value("N#Cc1cccc(C(=O)NC2CCN(c3ccnc(Nc4ccc(F)cc4)n3)C2)c1 (centres unmarked)")
"0%"
>>> experimental_value("CC(=O)Nc1nc2cnc(Nc3cc(NC(=O)c4cccc(CC(C)(C)C#N)c4)ccc3C)nc2s1")
"55%"
